assayRemarks: NCI Yeast Anticancer Drug Screen. Data for the cln2 rad14 strain (AID 165);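 note: 0% = growth equal to vehicle treated cultures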
settings: S. cerevisiae cln2 rad14 strain, at 50.0 µM, stronger effect = higher value
This is part of a sample that, as a whole, favours compounds with a hit. Of some 79,000 tested, about 15% had one in any assay.
assayEndpoint: growth inhibition (%)
Numbers only; they are read as %.

Please fill in: growth inhibition reported for COc1ccc(OC)c(C(c2cc(OC)ccc2OC)C(Cl)(Cl)Cl)c1 = -6.45

The molecule O=C(O)c1c(CC(Cc2ccc3c(c2)CCCC3)C(=O)O)ccc2c1CCCC2 (stereo unspecified) showed growth inhibition equal to 11.8

Query O=C1/C(=C/c2ccc3c(c2)OCO3)SC2C=Nc3ccccc3N12 (stereo unspecified) yields growth inhibition of -7.45

Entry CC(CNC(N)=O)(CNC(N)=O)c1ccccc1 — recorded growth inhibition = -21.6

Documented growth inhibition of CCCCCCCC/C=C\CCCCCCCC(N)=O : -53

What the record says about O=c1c2ccccc2c(=O)n2n1C1C=CC2C1 : growth inhibition is -6.4

Lab note: CCN(CC)CN1C(=O)C2C3C=CC(C2C1=O)C1C2C(=O)N(CN(CC)CC)C(=O)C2C31 (stereo unspecified) gave growth inhibition of -9.15

The molecule listed as CCC1C(=O)N(C)c2ccccc21 (stereo unspecified) shows growth inhibition equal to 1.55

Value of growth inhibition reported for the molecule O=C(CP(=O)(c1ccccc1)c1ccccc1)c1cccc(C(=O)CP(=O)(c2ccccc2)c2ccccc2)c1 is -15.7

For this molecule ( CN1C(=O)CC(c2cccc(C3CC(=O)N(C)C3=O)n2)C1=O (stereo unspecified) ), measured growth inhibition is -5.8

Entry C=CC(C)C1C(C)C(Cl)CC(Cl)C1OC(=O)c1ccccc1 (stereo unspecified) , growth inhibition reported as -2.3

Form: molecule = CC(C)CC1CC(=O)NC1C(=O)O (stereo unspecified) ; growth inhibition = -26.1

GET /value?item= CCOC(=O)c1cc(C=O)nc2c(Cl)cc(Cl)cc12 &field=growth inhibition returns 5.9

Item: CCCCCCCCCCCCCC(=O)OC | growth inhibition: -9.3

Short answer for O=C1c2ccccc2C(=O)N1CCS(=O)(=O)CCS(=O)(=O)CCN1C(=O)c2ccccc2C1=O : growth inhibition was -37.5

Please fill in: growth inhibition reported for c1ccc2c(c1)CCCN2c1nc(N2CCCCC2)nc(N2CCOCC2)n1 = 22.1

CC1CCOC(c2ccc(C(C)C)cc2)O1 (stereo unspecified) yielded growth inhibition of -9.9

GET /value?item= CCC(=O)SCC[N+](C)(C)C &field=growth inhibition returns 8.8

Reported growth inhibition ( CCCC(=O)OCc1ccc(Cl)cc1Cl ) = 7.75

// growth inhibition value for CCCCC(SC(CC)(CC)C(N)=O)C(N)=O (stereo unspecified) : -28.9

Input NNC(=O)CC(N)C(N)=O (stereo unspecified) . Output growth inhibition: 13.3

Kindly note the recorded growth inhibition for CCCCCCC1=CC(=O)CC(=O)C1 , which is 13.6

get_value(item= O=c1[nH]cccc1O , readout=growth inhibition) returns 10.4

Consider NC(=O)/C=C1\NC(=O)CS1 . Its measured growth inhibition is -31.1

Measured growth inhibition of CC(C)OC(=O)C(C)(OC(=O)c1ccccc1)c1ccccc1 (stereo unspecified) : -13.1

Recorded growth inhibition (molecule CCCCCCCC/C=C/CCCCCC1CCCC(C)N1 (stereo unspecified) ): 3.65

---

Please respond with reported growth inhibition for every item in the list.
assayRemarks: NCI Yeast Anticancer Drug Screen. Data for the mec2-1 strain (AID 157)
settings: S. cerevisiae mec2-1 strain, at 50.0 µM, stronger effect = higher value
This is part of a sample that, as a whole, favours compounds with a hit. Of some 79,000 tested, about 15% had one in any assay.
Return type: number; implicit unit %.

Per the records, this molecule ( C/C(=N/Nc1ccc([N+](=O)[O-])cc1[N+](=O)[O-])C(CC(C(=O)Nc1ccccc1C)/C(C)=N\Nc1ccc([N+](=O)[O-])cc1[N+](=O)[O-])C(=O)Nc1ccccc1C (stereo not drawn) ) has growth inhibition equal to 25.9

GET /value?item= COc1cc(C)cc2c(-c3c(O)cc(O)c4c3CC(C)N[C@H]4C)cc(-c3cc(-c4c(O)cc(O)c5c4CC(C)N[C@H]5C)c4cc(C)cc(OC)c4c3O)c(O)c12 (stereo partly drawn) &field=growth inhibition returns -20.4

response.value for COc1ccc(NC(=O)CCc2cc(-c3ccc(O)c(OC)c3)nc(NC#N)n2)cc1 (field: growth inhibition) = 9

---

assayRemarks: NCI Yeast Anticancer Drug Screen. Data for the rad50 strain (AID 155);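 note: 0% = growth of vehicle-only cultures of the same strain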
settings: S. cerevisiae rad50 strain growth inhibition; at 50.0 µM; stronger effect = higher value
Experimental: Growth inhibition of yeast strains with defined genetic alterations is measured as a screen for potential anti-cancer activity. Selected strains with alterations in DNA damage repair or cell cycle control were exposed to compounds and growth inhibition was measured relative to vehicle treated controls. The strain used in this assay is rad50
This is part of a sample that, as a whole, favours compounds with a hit. Of some 79,000 tested, about 15% had one in any assay. Where a SMILES comes first, the peptide text is derived from it.
assayEndpoint: growth inhibition (%)
The answer is to be given in %; state only the numeric part.

The reported value for CCCCC(CC)(CO)CCC (configuration not stated) in terms of growth inhibition is -8.75

Form field growth inhibition, entry O=C1/C(=C/c2ccc3c(c2)OCO3)SC2C=Nc3ccccc3N12 (configuration not stated) : -14

# growth inhibition (compound: CCc1ccc(/C(C#N)=C/c2ccc(N(C)CCC#N)cc2)cc1 ) is 10.8

// field: growth inhibition; key: N#Cc1c(-c2ccccc2)c[nH]c1/N=C/N ; value = -17.6

Record summary for OCC(F)(F)C(F)(F)C(F)(F)C(F)(F)C(F)(F)C(F)(F)C(F)(F)C(F)F : reported growth inhibition = 23.9

Per the record, CCCC(=O)C(N)Cc1ccccc1 (configuration not stated) has growth inhibition of -3.8

# compound CC1(c2nc3ccccc3s2)CCCO1 (configuration not stated) ; its growth inhibition = -6.1

Value of measured growth inhibition for the entry O=S(=O)(c1ccc(Br)cc1)S(=O)(=O)c1ccc(Br)cc1 : -22.6

Query CCCCC1NNC(CCCC)NN1 (configuration not stated) yields growth inhibition of 2.8

Entry under test: O=C(OCC1OC(C2N(c3ccccc3)CCN2c2ccccc2)C(OC(=O)c2ccccc2)C1OC(=O)c1ccccc1)c1ccccc1 (configuration not stated) . Its growth inhibition was 0.85

Field growth inhibition (entry CC(=O)CC(C)(C)c1cc(CC(C)(C)C(N)=O)on1 ) reads 0.75

Quick note, growth inhibition for COc1ccc(NS(=O)(=O)c2ccc(NC(=O)NCCCl)cc2)nn1 landed at 13

# growth inhibition (compound: C1=NCCCCCCCN=Cc2ccccc2NCCNc2ccccc21 ) is 29.1

Just so you know, measured growth inhibition for CSc1nc(NC2OC(COC(C)=O)C(OC(C)=O)C(OC(C)=O)C2OC(C)=O)c(N=C(C)C(C)=O)c(=O)n1C (configuration not stated) came out at 16.2

Value of growth inhibition reported for the compound O=C(O)/C=C1/CCC(=O)O1 is -5.25

Entry Cl[Si]1(Cl)Oc2ccccc2O[Si](Cl)(Cl)Oc2ccccc2O1 — recorded growth inhibition = 16.2

For CC(=O)c1ccccc1C the compound record lists growth inhibition as -32.6

get_value(item= BrC1c2ccccc2-c2nc3ccccc3nc21 (configuration not stated) , readout=growth inhibition) returns 11.2

Sure, the documented growth inhibition for OC(c1cccc(OCc2ccccc2)c1)c1ccccn1 (configuration not stated) is 4.95

Input CS(=O)(=O)c1c(N)c2nc(Cl)cn2c2nc3ccccc3nc12 . Output growth inhibition: -11.4

growth inhibition in this record for O=C(Nc1ccccc1)Nc1cc(C(F)(F)F)ccc1Cl : 36

Lab note: measured growth inhibition of CNC(=O)OCc1c(COC(=O)NC)c(C)n(-c2ccc3c(c2)OCO3)c1C was -3.2

Recorded growth inhibition (compound C/C(=N/NC(=O)C1CCCO1)c1ccc(C)cc1 (configuration not stated) ): 0.95

The compound identified as CCCCCCCCCCCCCCCCSc1ccncc1NN=O registered its growth inhibition at 36.2

In plain terms, O=S(=O)(c1ccccc1)C1CCCC1 has a documented growth inhibition of -12.2

The recorded growth inhibition for entry Cc1ccsc1/C=N/Nc1cc(C)c2ccccc2n1 equals 41.4

Record summary for CC1CCS(=O)(=O)C1 (configuration not stated) : reported growth inhibition = -12.8

Note to self: growth inhibition recorded for COc1ccc(C(O)c2ccc(C)cc2)cc1 (configuration not stated) was -14.1

# compound CC(C)=C/C(C)=N/NC(N)=O ; its growth inhibition = 7.9

# compound CC(C)(C)c1ccc(-n2c3nc(=O)n(-c4ccccc4CO)c(=O)c-3cc3ccccc32)cc1 ; its growth inhibition = -9.75

Just so you know, measured growth inhibition for O=C1C(=C(c2ccc([N+](=O)[O-])cc2)N2CCOCC2)C(=O)c2ccccc21 came out at 8.9

Recorded result, Cn1cncc1CC1COC(=O)C1C(O)c1ccccc1 (configuration not stated) , growth inhibition: 11

For this compound ( CSCCC(N)C(=O)NC(CCSC)C(=O)O (stereo not drawn) (H-Met-Met-OH; configuration not given here) ), measured growth inhibition is -12

The value of growth inhibition measured for the compound COC(=O)/C(=N\NC(N)=O)C(C(=O)C=C(C)C)C(=O)C(=O)Nc1ccc(Cl)c(Cl)c1 (configuration not stated) turned out to be -9

growth inhibition recorded for this compound, Cn1nc(-c2ccccc2)c(N=[N+]=[N-])cc1=O , is -18.1

Record CCCCCCCOC(=O)C(N)c1ccccc1 (configuration not stated) . Reported growth inhibition: -5.2

In plain terms, CCOc1nc(C)cc(C(=O)OC)c1C#N has a documented growth inhibition of 18.4

Lab note: measured growth inhibition of CCCCCCCC/C=C/CCCCCCCC(=O)N(C)CC(=O)O was -18.6

For this compound ( CCNC1=C(C(=O)OCC)C(=O)CO1 ), measured growth inhibition is 34

For reference, reported growth inhibition for CC(C)CC1CC(=O)NC1C(=O)O (configuration not stated) stands at -14.2

Per the record, C=C1C2CC(OC(C)=O)C3(C)C(c4ccoc4)OC(=O)[C@@H](O)[C@]13OC1C[C@H](OC(C)=O)C(C)(C)[C@H](C(O)C(=O)OC)[C@]12C (some centres not stated) has growth inhibition of -11.8

For reference, reported growth inhibition for Cc1ccc(NC(=O)CCC(CC(=O)C(C)(C)C)=NNC(=O)C(=O)NN)cc1C stands at -25.8

Entry CCOCCOC(=O)C1CCC(=O)N1CN(C(C)=O)c1cc(OC)ccc1OC (configuration not stated) , growth inhibition reported as -17.9

O=C(OCC1OC(n2ccc(=O)[nH]c2=O)C(F)C1OC(=O)c1ccccc1)c1ccccc1 (configuration not stated) yielded growth inhibition of 24.1

O=C(O)c1ccc(/C=N/NC(=O)C(O)(c2ccccc2)c2ccccc2)cc1 has a reported growth inhibition of 8.3

Field growth inhibition (entry COC1(C)CCC2(O)C(=O)OC3C(O)COC32O1 (configuration not stated) ) reads -3.45

// sample CC1(C)CN(Cc2ccccc2)C(C)(C)CN1 , its growth inhibition was -5.85
